Source listed as patent US8674113B2.

# target system: recombinant human mPGES-1 (Homo sapiens (Human))
# Sequence (O14684 whole entry): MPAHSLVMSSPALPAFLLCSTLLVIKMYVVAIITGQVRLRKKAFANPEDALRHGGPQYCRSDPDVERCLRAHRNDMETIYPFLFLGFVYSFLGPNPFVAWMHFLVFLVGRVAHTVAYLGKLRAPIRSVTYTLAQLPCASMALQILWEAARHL
# procedure details: mPGES-1 enzyme assay (HTRF detection of PGE2)
# Type: biochemical
# run conditions: recombinant human mPGES-1 microsomes, PGH2 2 μM, 60 seconds; read-out: mPGES-1 inhibitory effect IC50 in the enzyme assay
Mark Criterion met only when IC50 stays strictly below 4 nM. Values equal to the cut-off are Criterion not met.

{"structure": "Cn1c(Nc2c(Cl)ccc(CNC(=O)c3nccs3)c2Cl)nc2cc(C(=O)NCCC(F)(F)F)c(N3CCC(C(F)(F)F)CC3)cc21", "class": "Criterion met"}
{"structure": "Cn1ccnc1CNc1cc2c(cc1C(=O)N[C@H]1CC[C@H](C(F)(F)F)CC1)nc(Nc1c(Cl)ccc(CNC(=O)C(C)(C)C)c1Cl)n2C", "class": "Criterion not met"}
{"structure": "Cn1c(Nc2c(Cl)ccc(CNC(=O)C(C)(C)F)c2Cl)nc2cc(C(=O)Nc3ccc(OC(F)(F)F)cc3)c(N3CCC(F)(F)CC3)cc21", "class": "Criterion met"}
{"structure": "Cn1c(Nc2c(Cl)ccc(CNC(=O)C(C)(C)C(F)(F)F)c2Cl)nc2cc(C(=O)Nc3ccc(OC(F)(F)F)cc3)c(N3CC[C@@H](F)C3)cc21", "class": "Criterion not met"}
